# Tested on: 415267-285-R-J2-PDC complex spheroid viability;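 note: luminescence used as stand-in measure of viable cells; spheroids exposed to compounds for one week before readout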
# assay.summary: Anticancer human tumor 415267-285-R-J2-PDC patient-derived breast carcinoma cell line growth inhibition [POLQ]; active = viability on the fitted dose curve at most 10% of control; inactive = the rest
# particulars: second compound 10 µM; first compound 0.0316 µM
Use one of these outcomes when replying: active, inactive

Past entries and their recorded results:
Answer briefly: the call reported for Nc1ccn(C2OC(CO)C(O)C2(F)F)c(=O)n1 (stereo not given) + Nc1ccc(C#CCN(C(=O)Cc2ncc(C(F)(F)F)cc2C(F)(F)F)c2ccc(F)cc2)nn1 in this assay. inactive

Answer briefly: the call reported for CCc1c2c(nc3ccc(O)cc13)-c1cc3c(c(=O)n1C2)COC(=O)[C@]3(O)CC + Nc1ccc(C#CCN(C(=O)Cc2ncc(C(F)(F)F)cc2C(F)(F)F)c2ccc(F)cc2)nn1 in this assay. active

Answer briefly: the call reported for CCc1c2c(nc3ccc(O)cc13)-c1cc3c(c(=O)n1C2)COC(=O)[C@]3(O)CC + COC1C(OC(N)=O)C(O)C(Oc2ccc3c(O)c(NC(=O)c4ccc(O)c(CC=C(C)C)c4)c(=O)oc3c2C)OC1(C)C in this assay. active

Answer briefly: the call reported for CC1COCCN1c1cc(C2(S(C)(=N)=O)CC2)nc(-c2ccnc3[nH]ccc23)n1 (stereo not given) + Cc1cccc(N(C)C(=O)C2C(O)CCN2c2nc(C)cc(C(F)(F)F)c2C#N)c1 in this assay. inactive

Now, please, on to the next compound.
Answer briefly: the call reported for COc1ccc([C@@H](O)c2cc(-c3ncnc4cc(N5CCOCC5)ccc34)c(F)cc2Cl)nn1 + COC1C(OC(N)=O)C(O)C(Oc2ccc3c(O)c(NC(=O)c4ccc(O)c(CC=C(C)C)c4)c(=O)oc3c2C)OC1(C)C in this assay. inactive
